Where do these numbers come from? They come from paper PMC12416549.

- Measured On: T1, TNFR1 (Homo sapiens, UniProt P19438)
- T1 chain: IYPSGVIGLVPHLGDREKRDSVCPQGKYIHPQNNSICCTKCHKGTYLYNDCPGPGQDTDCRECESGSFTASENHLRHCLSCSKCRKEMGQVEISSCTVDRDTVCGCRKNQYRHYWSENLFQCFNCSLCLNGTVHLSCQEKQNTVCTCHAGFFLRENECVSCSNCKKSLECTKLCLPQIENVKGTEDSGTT
- Protocol Notes: yeast display SC50
Here the recorded apparent Kd (screen) is given for each entry.
Could you give me the number in nM? Just the number is fine.

| Binder | apparent Kd (screen), nM |
| --- | --- |
| L75R (designed binder) MTLQELLREEALRRAEAEAFRYALELLAEKFPEQKEYLLDLAEEIESQIRSLSGVDVEDVRKFLDKEWAWVKELRAEHPAELAEVEAARAARLAELRAEVEAKVAA | 0.653 |
| F20T (designed binder) MTLQELLREEALRRAEAEATRYALELLAEKFPEQKEYLLDLAEEIESQIRSLSGVDVEDVRKFLDKEWAWVKELLAEHPAELAEVEAARAARLAELRAEVEAKVAA | 1.16 |
| L3Q (designed binder) MTQQELLREEALRRAEAEAFRYALELLAEKFPEQKEYLLDLAEEIESQIRSLSGVDVEDVRKFLDKEWAWVKELLAEHPAELAEVEAARAARLAELRAEVEAKVAA | 22.2 |

Next binder, apparent Kd (screen) to be filled in.
What does the record list as apparent Kd (screen) for A88N (designed binder) MTLQELLREEALRRAEAEAFRYALELLAEKFPEQKEYLLDLAEEIESQIRSLSGVDVEDVRKFLDKEWAWVKELLAEHPAELAEVEANRAARLAELRAEVEAKVAA ?
0.718
